# System: ACHN renal
# ASSAY_PROCEDURE: NCI tumour cell line growth inhibition, 48 h
MEASURE_NAME: TGI

# annotated cases, reported TGI shown
MOLECULE | TGI
Oc1ccc(N=C2CCC(=C(c3ccccc3)c3ccc(Nc4ccc(O)cc4)cc3)CC2)cc1 | > 100 µM
CC(=O)Nc1ccc(-c2nc3ccccc3s2)cc1I | > 100 µM
OCC(O)C(O)C(O)c1nn(-c2ccc(Cl)cc2)c2nc3cc(Cl)c(Cl)cc3nc12 (stereo not given) | > 100 µM
CS(=O)(=O)Nc1ccc(-c2cc(-c3ccccc3)cc(C(N)=O)c2N)cc1 | > 25 µM
CC1=CC[C@@]2(CO)[C@@H]([C@@H]1C)[C@H]1CC[C@@H]3[C@@]4(C)CC[C@H](O)C(C)(C)[C@@H]4CC[C@@]3(C)[C@]1(C)C[C@@H]2O | 91.7 µM

Inquiry: TGI lookup needed for C=CC(C1=CC(=O)C(OC)=CC1=O)c1ccccc1 (stereo not given) , thanks.
Reply text: 27.4 µM

Inquiry: TGI lookup needed for CCC(=O)c1ccc2[nH]c3c(C)c4c(=O)cc(C)[nH]c4c(C)c3c2c1 , thanks.
Reply text: > 100 µM

Inquiry: TGI lookup needed for CNC(=O)OCc1c2ccncc2c(C)c2c1[nH]c1ccccc12 , thanks.
Reply text: 0.522 µM

Inquiry: TGI lookup needed for COc1cc(-c2nc3ccccc3s2)ccc1NC(=O)COc1ccc(Cl)cc1 , thanks.
Reply text: > 100 µM

Inquiry: TGI lookup needed for CCCCCCCCCCCCCC(=O)OCC1OC(n2cc(F)c(=O)[nH]c2=O)C(NC(=O)OCc2ccccc2)C(OC(=O)CCCCCCCCCCCCC)C1O (stereo not given) , thanks.
Reply text: > 100 µM

* * *

# Test system: SNB-19 CNS
# ASSAY_PROCEDURE: NCI tumour cell line growth inhibition, 48 h
Where a SMILES comes first, the peptide text is derived from it. The star is where a group is joined. Cbz = O=C(OCc1ccccc1)*; Boc = CC(C)(C)OC(=O)*; OSu = O=C1CCC(=O)N1O*; Bn = c1ccc(C*)cc1
# TGI listing for each entry below
Value expressed in µM; do not type the unit.

COMPOUND | UNIT | TGI
COC(=O)c1c(O)ccc2c1c1c(n2Cc2ccc(Cl)cc2Cl)C(=O)c2ccccc2C1=O | µM | 30.6
CC(C)(C)OC(=O)NC(Cc1ccc(OCc2ccccc2)cc1)C(=O)NC(CCCCNC(=O)OCc1ccccc1)C(=O)ON1C(=O)CCC1=O (centres undefined) (Boc-Tyr(Bn)-Lys(Cbz)-OSu; configuration not given here) | µM | 35.3

Inquiry: TGI lookup needed for Clc1ccc2c(c1)N(c1ncnc3ccc(-c4cnc5[nH]ccc5c4)cc13)CC2 , thanks.
Reply text: 35.5

Inquiry: TGI lookup needed for Clc1ccc2c(c1)N(CCCN1CCCC1)c1ccccc1S2 , thanks.
Reply text: 28.1

* * *

# Tested on: SK-OV-3 ovarian
# ASSAY_PROCEDURE: NCI tumour cell line growth inhibition, 48 h
MEASURE_NAME: TGI (µM)
Value expressed in µM; do not type the unit.

# annotated cases, reported TGI shown
MOLECULE | MEASURE_NAME | VALUE_REPORTED
CC1=CC[C@@]2(CO)[C@@H]([C@@H]1C)[C@H]1CC[C@@H]3[C@@]4(C)CC[C@H](O)C(C)(C)[C@@H]4CC[C@@]3(C)[C@]1(C)C[C@@H]2O | TGI | 39.4
CC1(C)CCC2=C(O1)c1ccccc1C(=O)C2=O | TGI | 3.94
COc1cc2nc(SCC(=O)Nc3cc(OC)c(OC)c(OC)c3)n(Cc3ccccc3)c(=O)c2cc1OC | TGI | 7.26
COc1ccc(/C(O)=C/c2nc3cccnc3nc2/C=C(\O)c2ccc(OC)cc2)cc1 | TGI | 31.7
CCCCCCCCCCCCCC1=NCCN1CCO | TGI | 18.3
Cc1nc(N/N=C/c2ccccc2Cl)[nH]c(=O)c1CCO | TGI | 43.4
O=C(c1ccccc1)c1ccc(-n2c3ccccc3c3ccc4c(c32)C(=O)C=CC4=O)cc1 | TGI | 42.9
CCCCCCCCN(CCCCCCCC)CCCCCCNc1cc(OC)cc2cccnc12 | TGI | 28.8

As a next step, examine the molecule that follows.
Inquiry: TGI lookup needed for Cc1ccc(C(SCC(N)C(=O)O)(c2ccc(C)cc2)c2ccc(C)cc2)cc1 (stereo not given) , thanks.
Reply text: 15.3
